Test target: SARS-CoV-2 Mpro (Severe acute respiratory syndrome coronavirus 2, UniProt P0DTD1)
A collection of compounds and their measured pIC50
To interpret pIC50, take it as minus log10 of a concentration measured in moles per litre.

> print(dat)
                                   compound  value.reported
1  Cn1cnc(Cc2cn(Cc3cc(F)c(F)cc3F)c(Nc3cc4cn(C)nc4cc3Cl)nc2=O)n1 [Compound 4]            7.60
2  Cn1cnc(Cc2cn(Cc3cc(F)c(F)c(F)c3F)c(Nc3cc4cn(C)nc4cc3Cl)nc2=O)n1 [Compound 7]            7.21

Turning to the following compound.
I would be grateful if you could share the reported pIC50 for Cn1cnc(Cc2c(F)n(Cc3cc(F)c(F)cc3F)c(Nc3cc4cn(C)nc4cc3Cl)nc2=O)n1 [Compound 8] .
7.24

###

Assay remarks: in vivo
Parameters: species or system beagle dogs
Details: beagle, dog, iv, 0.1 mg/kg, AUC
Structures can show the parent of a compound that is named as a salt.
Measured endpoint: AUC (µM·h)
Field: numeric (µM·h). Do not append units.

I would be grateful if you could share the reported AUC for Cn1cnc(Cc2cn(Cc3cc(F)c(F)cc3F)c(Nc3cc4cn(C)nc4cc3Cl)nc2=O)n1 [Compound 4 hydrochloride] .
0.504

###

Assay remarks: in vivo
Set-up: species or system Sprague-Dawley strain rats
Details: Sprague-Dawley, rat, po, 0.5 mg/kg
Counter-ions that a name gives are not always drawn.
Measured endpoint: Tmax (h)
Field: numeric (h). Do not append units.

I would be grateful if you could share the reported Tmax for Cn1cnc(Cc2cn(Cc3cc(F)c(F)cc3F)c(Nc3cc4cn(C)nc4cc3Cl)nc2=O)n1 [Compound 4 hydrochloride] .
2
